Would you kindly list folding stability dG unfold for each of these sequences?
- ASSAY SUMMARY: folding stability dG unfold from trypsin proteolysis; higher = more stable
Give bare numbers, in kcal/mol.

# count of solved cases: 5
# RECORD SEQUENCE, MEASURE NAME, UNIT STRING, OBSERVED
rows = [
    ("SAWNFKIEEVEVDPNDGRIWFTVKIPPNNPELAEEIAEELQDYGIKVKLINPDLPPGQTIIVQIEVKDPSAG [r14_354_TrROS]", "folding stability dG unfold", "kcal/mol", 1.3),
    ("SAGGSAGGSAGGSMPLRKVTVSRPDSTLEFEFPESVPEEEVKEKLKKEYPNAEVKVEPESAGGSAGGSAGGS [r4_155_JUSTAS]", "folding stability dG unfold", "kcal/mol", -0.633),
    ("SAGGMVDIYFPDAVIDDSGTKEDILEQLEKVTGKPIPEELREEILKGKTVEEIVELLKKRGFDVRVDSAGGS [r16_601_TrMRF]", "folding stability dG unfold", "kcal/mol", 2.8),
    ("SAGGSAGGSKTVVITLPENEELGLEKLEELIEKVGPDAKIIISRWDPETGKVDYLVIETGEGKSAGGSAGGS [r12_913_TrMRF]", "folding stability dG unfold", "kcal/mol", 1.02),
    ("SAGGDTVTTTETFPEKPILTVTTTSFSPSGTTTTTTTTYEVENGKIVSKLSTTTTTTAVAPAPPGTASAGGS [r16_682_JUSTAS]", "folding stability dG unfold", "kcal/mol", 0.71),
]

Each of the following entries comes with a recorded value; kindly state folding stability dG unfold for each.
1. KAYKVVFPLPKEGRTVVVYVPEEHGKPLTEEEIAALLREAYPDKEPADLPAEELAKILAAKEGVVRVEVEGS [r1_463_TrMRF]
2. SAKIVIIPLGDKAIIIITDENGKTKTIELPGISKIEIKGDHLKIYDPKTGKLIIPPNWKGKDIIIIPGKSAG [r14_83_TrMRF]

Result:
1. 0.866
2. 2.25

====

Would you kindly list folding stability dG unfold for each of these sequences?
- ASSAY SUMMARY: folding stability dG unfold from trypsin proteolysis; higher = more stable
Give bare numbers, in kcal/mol.

# count of solved cases: 5
# RECORD SEQUENCE, folding stability dG unfold (kcal/mol)
measured = [
    ("SAGGSAGGSAGLKPEVEALVRVVLKLPEGERVVLVKVKTLEELFELDLPEVVSIEIRPLKSAGGSAGGSAGG [r17_290_TrMRF]", 1.28),
    ("MMLIIKVKNKKTGKTETIKIDMSVEEIKNAIKELKKKNPNAKVTIIGVKTEEVRKALKEAGIEKIEVKPLPS [r1_114_TrROS_Hall]", 3.01),
    ("SAGMVIPREEALANYSEEEIKELAKKIAEELGYKPKKIEIKKDPSPNSSITVTITPPDGSTIPLVLELPSAG [r5_745_JUSTAS]", 0.959),
    ("SAGGSAGGSAVETLVTYEVPEDLPPDSLSPEAVIARFAPLGVPTEVVEIDPATGTVTVRTLVPSAGGSAGGS [r12_733_JUSTAS]", -0.377),
    ("SAEIPPDLIAVILGIEPYRFGERDFLVITAAIFRPEEPDAEVTLYTIVIEGDKIVSITPSRYRVPPEALSAG [r14_651_TrMRF]", 2.92),
]

Each of the following entries comes with a recorded value; kindly state folding stability dG unfold for each.
1. SAGGSKLPPGQKVIEIEWKIPPGLKPGQPFKISDEFINKLAERHGNIHITNIQFTNSYMKWSIIIDSAGGSA [r2_383_TrROS]
2. SAGRIYVDPNMVVIEIKYPDKPMPIIIPFKDPEDQEMAKELVKKIMRYLRNEGLPVEVEVEVFPPGQPVSAG [r5_823_TrROS]

Result:
1.83
1.51
